target: human NaPi-IIb (Homo sapiens, UniProt O95436); construct: expressed in transfected cells; test: Inhibitory effect on 33PO4 uptake into human NaPi-IIb-expressing CHO cells; assay type: cell-based; conditions: read-out: IC50
Sequence (O95436 whole entry): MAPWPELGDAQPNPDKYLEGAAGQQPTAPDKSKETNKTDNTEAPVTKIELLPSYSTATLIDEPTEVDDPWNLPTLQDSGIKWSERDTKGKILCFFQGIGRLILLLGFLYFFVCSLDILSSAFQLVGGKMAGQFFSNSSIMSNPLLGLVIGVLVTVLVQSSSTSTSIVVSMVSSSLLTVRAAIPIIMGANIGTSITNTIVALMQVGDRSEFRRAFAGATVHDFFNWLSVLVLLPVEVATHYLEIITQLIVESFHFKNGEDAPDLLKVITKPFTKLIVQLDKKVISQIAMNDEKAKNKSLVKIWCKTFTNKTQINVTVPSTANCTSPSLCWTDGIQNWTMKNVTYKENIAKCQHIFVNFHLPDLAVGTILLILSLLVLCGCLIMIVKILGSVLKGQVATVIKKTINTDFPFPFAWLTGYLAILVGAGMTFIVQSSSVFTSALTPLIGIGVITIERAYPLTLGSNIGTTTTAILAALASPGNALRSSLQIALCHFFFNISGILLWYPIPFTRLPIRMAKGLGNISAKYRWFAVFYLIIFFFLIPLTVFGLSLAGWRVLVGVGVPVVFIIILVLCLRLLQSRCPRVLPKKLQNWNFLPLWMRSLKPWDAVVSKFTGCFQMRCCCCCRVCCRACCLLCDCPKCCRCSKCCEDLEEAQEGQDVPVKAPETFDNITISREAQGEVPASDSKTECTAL
# IC50 per entry
ENDPOINT_LABEL: IC50 (µM)

{"ENTRY_SMILES": "CN1N(Cc2cccc(F)c2F)C(=O)C(C(=O)Nc2ccc(C(F)(F)F)cc2-c2cc(C(F)(F)F)ncn2)=C(O)C12CCC2", "SUBJECT_OF_TEST": "human NaPi-IIb (Homo sapiens, UniProt O95436)", "ENDPOINT_LABEL": "IC50", "UNITS_SYMBOL": "µM", "RESULT": 9.3}
{"ENTRY_SMILES": "C[C@]12CCCN1N(Cc1ccc(C#CCOCCCCO)c(F)c1F)C(=O)C(C(=O)Nc1ccc(C(F)(F)F)cc1-c1ccc(C(F)(F)F)nc1)=C2O", "SUBJECT_OF_TEST": "human NaPi-IIb (Homo sapiens, UniProt O95436)", "ENDPOINT_LABEL": "IC50", "UNITS_SYMBOL": "µM", "RESULT": 12}
{"ENTRY_SMILES": "CSc1ncc(-c2cc(C(F)(F)F)ccc2NC(=O)C2=C(O)[C@@]3(C)CCCN3N(Cc3ccc(OCCN4CCOCC4)c(F)c3F)C2=O)cn1", "SUBJECT_OF_TEST": "human NaPi-IIb (Homo sapiens, UniProt O95436)", "ENDPOINT_LABEL": "IC50", "UNITS_SYMBOL": "µM", "RESULT": 10.8}
{"ENTRY_SMILES": "Cc1c(Cl)ncnc1-c1cc(C(F)(F)F)ccc1NC(=O)C1=C(O)[C@@]2(C)CCCN2N(Cc2cccc(F)c2F)C1=O", "SUBJECT_OF_TEST": "human NaPi-IIb (Homo sapiens, UniProt O95436)", "ENDPOINT_LABEL": "IC50", "UNITS_SYMBOL": "µM", "RESULT": 8.9}
{"ENTRY_SMILES": "C[C@]12CCCN1N(Cc1cccc(F)c1Br)C(=O)C(C(=O)Nc1ccc(Br)c(Cl)c1)=C2O", "SUBJECT_OF_TEST": "human NaPi-IIb (Homo sapiens, UniProt O95436)", "ENDPOINT_LABEL": "IC50", "UNITS_SYMBOL": "µM", "RESULT": 6.6}
{"ENTRY_SMILES": "C[C@]12CCCN1N(Cc1ccc(C#N)cc1)C(=O)C(C(=O)Nc1cc(F)c(Br)c(F)c1)=C2O", "SUBJECT_OF_TEST": "human NaPi-IIb (Homo sapiens, UniProt O95436)", "ENDPOINT_LABEL": "IC50", "UNITS_SYMBOL": "µM", "RESULT": 17.6}
{"ENTRY_SMILES": "CC1(C)CC[C@]2(C)C(O)=C(C(=O)Nc3cc(C(F)(F)F)ccc3-c3ccc(C(F)(F)F)nc3)C(=O)N(Cc3cccc(F)c3F)N12", "SUBJECT_OF_TEST": "human NaPi-IIb (Homo sapiens, UniProt O95436)", "ENDPOINT_LABEL": "IC50", "UNITS_SYMBOL": "µM", "RESULT": 8.7}
{"ENTRY_SMILES": "CC(C)[C@@H]1C(O)=C(C(=O)Nc2ccc(Cl)cc2-c2cc(C(F)(F)F)ncn2)C(=O)N(Cc2cccc(F)c2F)N1C", "SUBJECT_OF_TEST": "human NaPi-IIb (Homo sapiens, UniProt O95436)", "ENDPOINT_LABEL": "IC50", "UNITS_SYMBOL": "µM", "RESULT": 17.9}
{"ENTRY_SMILES": "CN1N(Cc2ccc(OCCN3CCOCC3)c(F)c2F)C(=O)C(C(=O)Nc2ccc(C(F)(F)F)cc2-c2ncnc(C(F)(F)F)c2Cl)=C(O)C12CCC2", "SUBJECT_OF_TEST": "human NaPi-IIb (Homo sapiens, UniProt O95436)", "ENDPOINT_LABEL": "IC50", "UNITS_SYMBOL": "µM", "RESULT": 7.8}
{"ENTRY_SMILES": "C[C@]12CCCN1N(Cc1cccc(Cl)c1F)C(=O)C(C(=O)Nc1cc(F)c(Br)c(F)c1)=C2O", "SUBJECT_OF_TEST": "human NaPi-IIb (Homo sapiens, UniProt O95436)", "ENDPOINT_LABEL": "IC50", "UNITS_SYMBOL": "µM", "RESULT": 2.8}
{"ENTRY_SMILES": "COc1cccc(-c2cc(C(F)(F)F)ccc2NC(=O)C2=C(O)[C@@]3(C)CCCN3N(Cc3ccc(C#CCOCCOCCOCCO)c(F)c3F)C2=O)c1OC", "SUBJECT_OF_TEST": "human NaPi-IIb (Homo sapiens, UniProt O95436)", "ENDPOINT_LABEL": "IC50", "UNITS_SYMBOL": "µM", "RESULT": 17.6}
{"ENTRY_SMILES": "CN1N(Cc2cccc(F)c2F)C(=O)C(C(=O)Nc2ccc(Cl)cc2-c2cc(C(F)(F)F)ncn2)=C(O)C12CCCC2", "SUBJECT_OF_TEST": "human NaPi-IIb (Homo sapiens, UniProt O95436)", "ENDPOINT_LABEL": "IC50", "UNITS_SYMBOL": "µM", "RESULT": 7.7}
{"ENTRY_SMILES": "Cc1c(Cl)ncnc1-c1cc(Cl)ccc1NC(=O)C1=C(O)[C@H](C(C)(C)C)N(C)N(Cc2ccc(OCCN3CCOCC3)c(F)c2F)C1=O", "SUBJECT_OF_TEST": "human NaPi-IIb (Homo sapiens, UniProt O95436)", "ENDPOINT_LABEL": "IC50", "UNITS_SYMBOL": "µM", "RESULT": 16.8}
{"ENTRY_SMILES": "Cc1c(-c2cc(C(F)(F)F)ccc2NC(=O)C2=C(O)C3(CCCCC3)N(C)N(Cc3ccc(OCCN4CCOCC4)c(F)c3F)C2=O)ncnc1C(F)(F)F", "SUBJECT_OF_TEST": "human NaPi-IIb (Homo sapiens, UniProt O95436)", "ENDPOINT_LABEL": "IC50", "UNITS_SYMBOL": "µM", "RESULT": 10}
{"ENTRY_SMILES": "C[C@]12CCCN1N(Cc1cccc(F)c1F)C(=O)C(C(=O)Nc1ccc(Br)c(F)c1)=C2O", "SUBJECT_OF_TEST": "human NaPi-IIb (Homo sapiens, UniProt O95436)", "ENDPOINT_LABEL": "IC50", "UNITS_SYMBOL": "µM", "RESULT": 4.1}
{"ENTRY_SMILES": "C[C@]12CCCN1N(Cc1c(F)cc(C#CCCCCCOC[C@H](O)[C@@H](O)CO)cc1F)C(=O)C(C(=O)Nc1ccc(C(F)(F)F)cc1-c1ccc(C(F)(F)F)nc1)=C2O", "SUBJECT_OF_TEST": "human NaPi-IIb (Homo sapiens, UniProt O95436)", "ENDPOINT_LABEL": "IC50", "UNITS_SYMBOL": "µM", "RESULT": 2.5}
{"ENTRY_SMILES": "C[C@]12CCCN1N(Cc1cccc(F)c1F)C(=O)C(C(=O)Nc1ccc(C(F)(F)F)cc1-c1cnc3ccccc3c1)=C2O", "SUBJECT_OF_TEST": "human NaPi-IIb (Homo sapiens, UniProt O95436)", "ENDPOINT_LABEL": "IC50", "UNITS_SYMBOL": "µM", "RESULT": 10.6}
{"ENTRY_SMILES": "CCC1(CC)C(O)=C(C(=O)Nc2ccc(Cl)cc2-c2ccc(C(F)(F)F)nc2)C(=O)N(Cc2ccc(OCCN3CCOCC3)c(F)c2F)N1C", "SUBJECT_OF_TEST": "human NaPi-IIb (Homo sapiens, UniProt O95436)", "ENDPOINT_LABEL": "IC50", "UNITS_SYMBOL": "µM", "RESULT": 13.4}
{"ENTRY_SMILES": "Cc1ccccc1CN1C(=O)C(C(=O)Nc2ccc(C(F)(F)F)cc2-c2cc(C(F)(F)F)ncn2)=C(O)[C@@]2(C)CCCN12", "SUBJECT_OF_TEST": "human NaPi-IIb (Homo sapiens, UniProt O95436)", "ENDPOINT_LABEL": "IC50", "UNITS_SYMBOL": "µM", "RESULT": 4.9}

###

biological target: human NaPi-IIb (Homo sapiens, UniProt O95436); construct: expressed in transfected cells; assay: Inhibitory effect on 33PO4 uptake into human NaPi-IIb-expressing CHO cells; format: cell-based; conditions: read-out: IC50 against 33PO4 uptake into human NaPi-IIb-expressing cells
Each entry below carries its reported IC50.

{"COMPOUND": "CN(CCO)CCOc1ccc(CN2C(=O)C(C(=O)Nc3ccc(C(F)(F)F)cc3-c3cc(C(F)(F)F)ncn3)=C(O)C3(CCCC3)N2C)c(F)c1F", "IC50 (µM)": 23.5}
{"COMPOUND": "CN(C)C(=O)N1CCN(CCOc2ccc(CN3C(=O)C(C(=O)Nc4ccc(C(F)(F)F)cc4-c4cc(C(F)(F)F)ncn4)=C(O)C4(CCC4)N3C)c(F)c2F)CC1", "IC50 (µM)": 20.9}
{"COMPOUND": "CN1N(Cc2ccc(OCCOCCNCC(O)CO)c(F)c2F)C(=O)C(C(=O)Nc2ccc(C(F)(F)F)cc2-c2cc(C(F)(F)F)ncn2)=C(O)C12CCCC2 (centres unmarked)", "IC50 (µM)": 24.8}
{"COMPOUND": "CN1N(Cc2ccc(OCCN3CCN(S(C)(=O)=O)CC3)c(F)c2F)C(=O)C(C(=O)Nc2ccc(C(F)(F)F)cc2-c2cc(C(F)(F)F)ncn2)=C(O)C12CCCC2", "IC50 (µM)": 27.3}
{"COMPOUND": "COC(=O)[C@@H]1CCCN1CCOc1ccc(CN2C(=O)C(C(=O)Nc3ccc(C(F)(F)F)cc3-c3cc(C(F)(F)F)ncn3)=C(O)C3(CCC3)N2C)c(F)c1F", "IC50 (µM)": 15}

Reference source for all entries: patent US9499553B2
